Here, each record is paired with measured MFI data.
biological target: T1, human ROR1 (hROR1) on cells (human, UniProt Q01973 30-937); assay: FACS, Panc-1 cells; note: test concentration or dose not given here
T1 construct: whole, on cells; the cell line is named under assay; also called HEK293T-hROR1; 293T-hROR1
T1 sequence (Q01973 30-937): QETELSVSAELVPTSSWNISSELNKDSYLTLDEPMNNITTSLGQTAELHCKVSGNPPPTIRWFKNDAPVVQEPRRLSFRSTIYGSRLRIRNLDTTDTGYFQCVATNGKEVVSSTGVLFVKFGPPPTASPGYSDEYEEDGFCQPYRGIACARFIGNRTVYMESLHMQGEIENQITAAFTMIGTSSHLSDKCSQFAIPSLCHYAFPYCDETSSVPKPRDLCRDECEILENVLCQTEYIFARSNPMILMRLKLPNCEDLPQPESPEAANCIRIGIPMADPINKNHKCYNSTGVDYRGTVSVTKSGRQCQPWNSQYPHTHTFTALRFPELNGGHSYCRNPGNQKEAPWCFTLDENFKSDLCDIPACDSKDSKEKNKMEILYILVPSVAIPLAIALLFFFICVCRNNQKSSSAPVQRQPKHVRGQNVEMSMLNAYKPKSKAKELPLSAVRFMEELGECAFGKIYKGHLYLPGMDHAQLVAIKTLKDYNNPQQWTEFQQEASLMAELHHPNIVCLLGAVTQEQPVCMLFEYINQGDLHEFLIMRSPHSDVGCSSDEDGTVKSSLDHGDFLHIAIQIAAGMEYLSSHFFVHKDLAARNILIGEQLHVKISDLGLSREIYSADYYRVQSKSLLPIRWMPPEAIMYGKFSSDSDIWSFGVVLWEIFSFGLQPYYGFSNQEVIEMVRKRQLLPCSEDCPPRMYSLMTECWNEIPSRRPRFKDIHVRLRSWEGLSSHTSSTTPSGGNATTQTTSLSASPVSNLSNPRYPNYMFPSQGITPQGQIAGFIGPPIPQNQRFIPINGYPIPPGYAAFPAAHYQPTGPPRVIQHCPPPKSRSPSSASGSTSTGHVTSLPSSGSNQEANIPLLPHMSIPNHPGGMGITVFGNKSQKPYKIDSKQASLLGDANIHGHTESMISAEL
quantity: MFI (MFI)

binder	quantity	readout number
PR002562 (antibody, human IgG1, kappa, V domains shown, PR001354 variant: VL N92Q; hIgG1; also called anti-ROR1 1015M2-C9(L: N92Q) hIgG1) VH: QVQLVQSGGGVVQPGRSLRLSCAASGFTFSSYGMHWVRQAPGKGLEWVAIMWYDGSDKDYADSVKGRFTISRDTSKNTLYLQMNSLRAEDTAVYYCAREQARSFDLWGRGTLVTVSS VL: DIVMTQSPSSLSASVGDRVTITCRASQTINNWLAWYQQKPGKAPKLLIYKASSLESGVPSRFSGSGSGTEFTLTISSLQPDDFATYYCQQYQSYSPMYTFGQGTKVEIKR	MFI	5600
PR002577 (antibody, human IgG1, kappa, V domains shown, PR001364 variant: VH G55A; hIgG1; also called anti-ROR1 1015M3-D8(H: G55A) hIgG1) VH: EVQLLESGGGVVQPGRSLRLSCAASGFTFSSFGMHWVRQAPGKGLEWVAVIWYDASDKDYADSVKGRFTISRDTSKNTLYLQMNSLRAEDTAVYYCAREQARSFDLWGRGTLVTVSS VL: DIVMTQSPSTLSASVGDRVTITCRASQTINNWLAWYQQKPGKAPKLLIYKASSLESGVPSRFSGSGSGTEFTLTISSLQPDDFATYYCQQYNSYSPMYTFGQGTKVEIKR	MFI	6490
PR002571 (antibody, human IgG1, kappa, V domains shown, PR001356 variant: VH G55A; hIgG1; also called anti-ROR1 1015M2-E6(H: G55A) hIgG1) VH: QVQLVESGGGVVQPGRSLRLSCAASGFTFSSYGMHWVRQAPGKGLEWVAVAWYDAVSEDYADSVKGRFTISRDNAKNTLYLQMNSLRAEDTAVYYCAREQARSFDLWGRGTLVTVSS VL: DIVMTQSPSTLSASVGDRVTITCRASQSINNWLAWYQQKPGKAPKLLIYKASSLESGVPSRFSGSGSGTEFTLTISSLQPDDFATYYCQQYKSYSPMYTFGQGTKVEIKR	MFI	4560
PR002563 (antibody, human IgG1, kappa, V domains shown, PR001354 variant: VL S93A; hIgG1; also called anti-ROR1 1015M2-C9(L: S93A) hIgG1) VH: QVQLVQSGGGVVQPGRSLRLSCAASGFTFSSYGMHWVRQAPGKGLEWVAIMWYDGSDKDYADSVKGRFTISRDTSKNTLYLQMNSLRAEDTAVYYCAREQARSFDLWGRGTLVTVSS VL: DIVMTQSPSSLSASVGDRVTITCRASQTINNWLAWYQQKPGKAPKLLIYKASSLESGVPSRFSGSGSGTEFTLTISSLQPDDFATYYCQQYNAYSPMYTFGQGTKVEIKR	MFI	5020
